Test system: 699152-130-R-J1-PDC complex spheroid growth;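 further: compound exposure lasted 7 days after spheroids had grown for 3 days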
Assay: Anticancer human tumor 699152-130-R-J1-PDC patient-derived pancreatic carcinoma cell line growth inhibition [AhR]
Settings: second compound 0.316 µM; first compound 0.00316 µM; hits give low values
Record form. Attribute: viability, T/C. Fill in for each entry.
Quick note: give the figure in %, leave out the unit.

## Input What value of viability, T/C has been reported for the following compound? CC1COCCN1c1cc(-c2ccnn2C)c2ccnc(-c3ccn[nH]3)c2n1 (centres undefined) + Cc1ccccc1N=Nc1ccc(NC(=O)c2ccnn2C)c(C)c1
## Output 87.8

## Input What do you have for Nc1ncn(C2CC(O)C(CO)O2)c(=O)n1 (centres undefined) + Cc1ccccc1N=Nc1ccc(NC(=O)c2ccnn2C)c(C)c1 ?
## Output 95.3

## Input What do you have for Cn1ncnc1C1c2n[nH]c(=O)c3cc(F)cc(c23)NC1c1ccc(F)cc1 (centres undefined) + Cc1ccccc1N=Nc1ccc(NC(=O)c2ccnn2C)c(C)c1 ?
## Output 97.8

## Input What do you have for CC1COCCN1c1cc(-c2ccnn2C)c2ccnc(-c3ccn[nH]3)c2n1 (centres undefined) + Cc1cncc(-c2nc(NCCc3c[nH]c4ccccc34)c3ncn(C(C)C)c3n2)c1 ?
## Output 119

Reference source for all entries: PubChem BioAssay AID1919001
